Could you please report measured z-score for the items listed next?
# TEST DETAILS: MELAS cybrid and Rieske KO viability enhancers – cell-based, MELAS cybrids, Rieske KO mouse fibroblasts, CellTiter-Glo, primary screen (AID 1508586);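 note: test concentration not given here; z relative to plate mean and SD of compound and empty wells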
# ASSAY CONDITIONS: MELAS cybrid survival, low glucose, CellTiter-Glo 48 h; hits give high values
Could you respond with only the numeric value?

For COC1C(=O)[C@]2(C)C(OC)C[C@H]3OC[C@@]3(OC(C)=O)[C@H]2C(OC(=O)c2ccccc2)[C@@]2(O)CC(OC(=O)C(O)C(NC(=O)OC(C)(C)C)c3ccccc3)C(C)=C1C2(C)C (stereo partly drawn) , what is its reported z-score?
1.6

For CO[C@@H]1[C@@H](OC(N)=O)[C@H](O)[C@H](Oc2ccc3c(O)c(NC(=O)c4ccc(O)c(CC=C(C)C)c4)c(=O)oc3c2C)OC1(C)C , what is its reported z-score?
0.157

For O=C(C=Cn1cnc(-c2cc(C(F)(F)F)cc(C(F)(F)F)c2)n1)NNc1cnccn1 , what is its reported z-score?
-0.213

---

# TEST DETAILS: C. elegans survival during P. aeruginosa infection – whole organism (AID 651566);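 note: tested at 14 µM; sign flipped so higher z means a lower ratio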
# ASSAY CONDITIONS: C. elegans killed by P. aeruginosa, survival ratio
MEASURED PARAMETER: z-score
Could you respond with only the numeric value?

For CS(=O)(=O)CCNCc1ccoc1-c1ccc2ncnc(Nc3ccc(OCc4ccccc4)cc3)c2c1 , what is its reported z-score?
0.33

For O=C(Nc1ccc(Oc2ccc3nc(NC(=O)c4ccco4)[nH]c3c2)cc1)Nc1cc(C(F)(F)F)ccc1F , what is its reported z-score?
-0.605

For NC(=O)c1cc(-c2ccc(F)cc2)cc(-c2ccncc2)c1N , what is its reported z-score?
0.64

For Cc1cccc(Nc2ncc(-c3ccccc3)o2)c1 , what is its reported z-score?
-1.25

For COc1cccc(Nc2nccc(-c3cnn4ncccc34)n2)c1 , what is its reported z-score?
0.695

For NC(=O)c1cccc(Nc2nccc(Nc3cccc4[nH]ncc34)n2)c1 , what is its reported z-score?
-0.905

For NC(=O)Cc1ccccc1Oc1nccc(-c2c(-c3ccc(F)cc3)ncn2C2CCNCC2)n1 , what is its reported z-score?
-0.78

For COC(=O)Nc1nc2ccc(Sc3ccc(NC(=O)Nc4cc(C(F)(F)F)ccc4F)cc3)cc2[nH]1 , what is its reported z-score?
-0.56

For CS(=O)(=O)CCNCc1coc(-c2ccc3ncnc(Nc4ccc(OCc5ccccc5)cc4)c3c2)c1 , what is its reported z-score?
-0.225

For NC(=O)c1sc(-n2cnc3ccccc32)cc1OCc1ccccc1Br , what is its reported z-score?
-0.075

---

# TEST DETAILS: viability loss with induced miR-34 in A549 – imaging, A549 dox-inducible miR-34, nuclei and caspase counts, primary screen (AID 1347080); note: test concentration not given here
# ASSAY CONDITIONS: A549 miR-34 inducible, Hoechst nuclei count, 48 h; hits give low values; cell number ratio, induced over uninduced
Active and inactive are the calls of the source.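 How the source made its calls: active means compounds whose cell count with miR-34 switched on is under 0.7 times the count with it off; inactive means the rest.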
MEASURED PARAMETER: fold change

For CC(C)(O)C1CC[C@@](C)([C@@H]2C(O)C[C@@]3(C)[C@@H]4CC(OC5OC(CO)C(O)C(O)C5O)[C@H]5C(C)(C)C(OC6OCC(O)C(O)C6O)CC[C@@]56C[C@]46CC[C@]23C)O1 (stereo partly drawn) , what is its reported fold change?
0.936 (inactive)

For CCC(C)C(NC(=O)C(CCC(=O)O)NC(=O)C(CC(C)C)NC(=O)C1CN=C(C(N)C(C)C)S1)C(=O)NC1CCCCNC(=O)C(CC(N)=O)NC(=O)C(CC(=O)O)NC(=O)C(Cc2cnc[nH]2)NC(=O)C(Cc2ccccc2)NC(=O)C(C(C)CC)NC(=O)C(CCCN)NC1=O (stereo not drawn) , what is its reported fold change?
1.05 (inactive)

For O=C(O)c1ccc2ccccc2n1 , what is its reported fold change?
0.876 (inactive)

For CCOC(=O)C12CC1/C(=N/O)c1ccccc1O2 (stereo not drawn) , what is its reported fold change?
1.06 (inactive)

For Cn1cc(C=CC(=O)c2cccc(F)c2)cc1C=CC(=O)NO , what is its reported fold change?
0.9 (inactive)

For Nc1ncnc2c1nc(Sc1ccc(Cl)cc1)n2C1OC2COP(=O)(O)O[C@@H]2[C@@H]1O (stereo partly drawn) , what is its reported fold change?
1.01 (inactive)

For CC(=O)NCC(=O)N1CCN(Cc2ccc3c(c2)OCO3)C(=O)C1 , what is its reported fold change?
0.905 (inactive)

For CCCOC(=O)c1c(-c2ccccc2)nc(CC)c(C(=O)SCC)c1CCC , what is its reported fold change?
1.01 (inactive)

For NC(N)=[N+]1CCc2ccccc2C1 , what is its reported fold change?
1.01 (inactive)

For Nc1nc2c(nc(Br)n2C2OC3COP(=O)(O)O[C@@H]3C2O)c(=O)[nH]1 (stereo partly drawn) , what is its reported fold change?
1.05 (inactive)

For O=C1CN(c2ncnc3sccc23)CCN1Cc1cccc(F)c1 , what is its reported fold change?
0.826 (inactive)

For C#C[C@@]1(OC(C)=O)CC[C@H]2[C@@H]3CCC4=CC(OC(C)=O)CC[C@@H]4[C@@H]3CC[C@@]21C (stereo partly drawn) , what is its reported fold change?
0.978 (inactive)

For NC[C@H]1O[C@@H](n2cnc3c(N)ncnc32)[C@H](O)[C@@H]1O , what is its reported fold change?
1.07 (inactive)

For C[C@]1(OC(=O)/C=C/c2ccccc2)C[C@@H](O)[C@]2(O)C=CO[C@@H](O[C@@H]3O[C@H](CO)[C@@H](O)[C@H](O)[C@H]3O)[C@@H]21 , what is its reported fold change?
0.943 (inactive)

For COc1ccc(CN2CCN(c3ncnc4sccc34)CC2=O)cc1 , what is its reported fold change?
0.842 (inactive)

For CCCCc1ncc(C=C(Cc2cccs2)C(=O)O)n1Cc1ccc(C(=O)O)cc1 , what is its reported fold change?
0.858 (inactive)

For COC(=O)NC(C)CNc1nccc(-c2cn(C(C)C)nc2-c2cc(Cl)cc(NS(C)(=O)=O)c2F)n1 (stereo not drawn) , what is its reported fold change?
0.982 (inactive)

For CNC(=C[N+](=O)[O-])NCCSCc1ccc(CN(C)C)o1 , what is its reported fold change?
0.921 (inactive)

---

# TEST DETAILS: MELAS cybrid and Rieske KO viability enhancers – cell-based, MELAS cybrids, Rieske KO mouse fibroblasts, CellTiter-Glo, primary screen (AID 1508586);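 note: test concentration not given here; z relative to plate mean and SD of compound and empty wells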
# ASSAY CONDITIONS: MELAS cybrid survival, low glucose, CellTiter-Glo 48 h; hits give high values
Use Met when the recorded z-score is no lower than 0.03; use Not met when it is lower.

Assess whether reported z-score for COc1ccc(CSc2nnc(-c3ccc4c(c3)OCO4)o2)cc1F sits at 0.03 or higher.
Met

Assess whether reported z-score for Cc1ccc(Sc2cccc3nc(N)nc(N)c23)cc1 sits at 0.03 or higher.
Met

Assess whether reported z-score for CCOC(=O)c1nn(CCc2ccccc2)c2c1CN(C(=O)CCc1nc3ccccc3s1)CC2 sits at 0.03 or higher.
Not met

Assess whether reported z-score for O=C1c2ccc(Nc3ccc(F)cc3F)cc2CCc2ccc(OCC(O)CO)cc21 (stereo not given) sits at 0.03 or higher.
Not met

Assess whether reported z-score for Cn1nc(NC(=O)Cn2cc(-c3nccc4occc34)cn2)c2ccccc21 sits at 0.03 or higher.
Met

Assess whether reported z-score for COc1ccc(C(=O)Nc2c(Cl)cncc2Cl)cc1OC1CCCC1 sits at 0.03 or higher.
Met

Assess whether reported z-score for COC(=O)c1c(NC(C)=O)c2cc(NCc3sccc3C)cnc2n1CC1CCCO1 (stereo not given) sits at 0.03 or higher.
Met

Assess whether reported z-score for CCN1C(=O)N(Cc2cccc(OC)c2)C(=O)C12CCN(CC1CC=CCC1)CC2 (stereo not given) sits at 0.03 or higher.
Not met

Assess whether reported z-score for Cn1ncnc1C1c2n[nH]c(=O)c3cc(F)cc(c23)NC1c1ccc(F)cc1 (stereo not given) sits at 0.03 or higher.
Not met

Assess whether reported z-score for Nc1nc(Cl)nc2c1ncn2C1OC(CO)C(O)C1F (stereo not given) sits at 0.03 or higher.
Met

Assess whether reported z-score for OCCn1cc(-c2ccc3c(c2)CCC3=NO)c(-c2ccncc2)n1 sits at 0.03 or higher.
Not met

Assess whether reported z-score for C=CCOc1ccccc1OCC(O)CNC(C)C (stereo not given) sits at 0.03 or higher.
Met

Assess whether reported z-score for COc1ccc(CC(N)=O)cc1 sits at 0.03 or higher.
Met

Assess whether reported z-score for Nc1nonc1C(=Nc1ccc(F)c(Cl)c1)NO sits at 0.03 or higher.
Not met

Assess whether reported z-score for Cc1ccc2nc(C3CCCN3c3ncc(C)c(-c4cnn(C)c4)n3)[nH]c2c1 (stereo not given) sits at 0.03 or higher.
Not met

Assess whether reported z-score for CCN(CC)C(=O)C(C#N)=Cc1cc(O)c(O)c([N+](=O)[O-])c1 sits at 0.03 or higher.
Not met

Assess whether reported z-score for O=C(CC1=CCCCC1)N1CCc2c(cc(-c3cccc(F)c3)c(=O)n2CCN2CCCCC2)C1 sits at 0.03 or higher.
Not met

Assess whether reported z-score for CCNc1nc(Nc2cc(F)c(C(=O)N3CCOCC3)cc2OC)ncc1C(F)(F)F sits at 0.03 or higher.
Not met

Assess whether reported z-score for N#CSc1cc(SC#N)c(N)nc1N sits at 0.03 or higher.
Not met

Assess whether reported z-score for O=C(CCc1ccc(O)cc1)c1c(O)cc(O)cc1OC1OC(CO)C(O)C(O)C1O (stereo not given) sits at 0.03 or higher.
Not met
